- target or system: human serum albumin (human) (UniProt P02768)
- Sequence (P02768 25-609 limits assumed): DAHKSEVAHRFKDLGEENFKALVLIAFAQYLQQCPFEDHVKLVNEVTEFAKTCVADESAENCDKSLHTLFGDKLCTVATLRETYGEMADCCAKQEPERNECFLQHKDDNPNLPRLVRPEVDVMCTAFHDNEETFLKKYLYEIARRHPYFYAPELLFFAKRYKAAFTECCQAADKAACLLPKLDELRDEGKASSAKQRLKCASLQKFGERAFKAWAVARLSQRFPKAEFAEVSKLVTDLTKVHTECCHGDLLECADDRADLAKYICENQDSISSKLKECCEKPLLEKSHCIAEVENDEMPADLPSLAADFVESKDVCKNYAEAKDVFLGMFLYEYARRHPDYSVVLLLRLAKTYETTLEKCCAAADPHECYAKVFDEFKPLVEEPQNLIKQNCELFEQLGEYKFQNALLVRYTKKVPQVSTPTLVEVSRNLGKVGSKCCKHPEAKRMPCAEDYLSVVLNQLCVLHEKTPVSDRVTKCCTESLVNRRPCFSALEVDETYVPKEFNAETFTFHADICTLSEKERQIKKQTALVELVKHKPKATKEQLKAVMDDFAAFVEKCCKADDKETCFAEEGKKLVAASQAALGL
- assay details: solution ELISA screen (luminescence)
metric: RLU (RLU)

Example cases with answers are listed next.
>>> observed("SEQ ID NO 239 (designed binder, not shown: small tags and cut ends) MLPAPKNLVVSRVTEDSARLSWTAPDAAFDSFYIAYAEPRPDGEAIQLVVPGSERSYDLTGLKPGTEYSVLIHGVKGGLLSSPLYAIFTT")
21100
>>> observed("SEQ ID NO 253 (designed binder, not shown: small tags and cut ends) MLPAPKNLVVSRVTEDSARLSWTAPDAAFDSFYIAYAEPRPDGEAIILHVPGSERSYDLTGLKPGTEYSVLIHGVKGGLLSSPLDAYFTT")
37700
>>> observed("SEQ ID NO 205 (designed binder, not shown: small tags and cut ends) MLPAPKNLVVSRVTEDSARLSWTAPDAAFDSFFIGYLEPQPPGEAILLGVPGSERSYDLTGLKPGTEYNVTIQGVKGGFPSMPLHPLVALFTT")
155000
>>> observed("SEQ ID NO 260 (designed binder, not shown: small tags and cut ends) MLPAPKNLVVSRVTEDSARLSWTAPDAAFDSFYIAYAEPRPDGEAIHLRVPGSERSYDLTGLKPGTEYNVTIQGVKGGFPSMPLSAIFTT")
33400
>>> observed("SEQ ID NO 257 (designed binder, not shown: small tags and cut ends) MLPAPKNLVVSRVTEDSARLSWTAPDAAFDSFYIAYAEPRPDGEAIQLGVPGSERSYDLTGLKPGTEYSVLIHGVKGGLLSSPLRAYFTT")
29800

A: SEQ ID NO 241 (designed binder, not shown: small tags and cut ends) MLPAPKNLVVSRVTEDSARLSWTAPDAAFDSFFIGYLEPQPPGEAIHLGVPGSERSYDLTGLKPGTEYNVTIQGVKGGFPSIPLFASFTT
B: SEQ ID NO 245 (designed binder, not shown: small tags and cut ends) MLPAPKNLVVSRVTEDSARLSWTAPDAAFDSFYIAYAEPRPDGEAIALWVPGSERSYDLTGLKPGTEYSVLIHGVKGGLLSSPLVASFTT
C: SEQ ID NO 219 (designed binder, not shown: small tags and cut ends) MLPAPKNLVVSRVTEDSARLSWTAPDAAFDSFYIAYAEPRPDGEAISLKVPGSERSYDLTGLKPGTEYSVLIHGVKGGLLSSPLEAIFTT
List from greatest to least RLU. Sort the labels as requested; that list is your answer.
A, B, C
(A: 26600 RLU, B: 18400 RLU, C: 11800 RLU)
